Attribution: the RNAGym collection of RNA variant scans (doi:10.1101/gad.245936.114)

B1: tRNA (parent)
chain: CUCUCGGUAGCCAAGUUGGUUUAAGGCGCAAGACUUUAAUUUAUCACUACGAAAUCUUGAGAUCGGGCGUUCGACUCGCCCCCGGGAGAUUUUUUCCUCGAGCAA

Variants of: B1
Assay: nonsense suppression (GFP-seq) (ratio to wild type); higher = more function; SUP4oc tRNA, yeast GFP reporter sort-seq
Variants at the floor of the assay were thinned out.
Observable: nonsense suppression

// worked examples, nonsense suppression included
{"Biosequence": "CUCUCGGUAGGCAAGUCGGUCUAAGGCGCAAGACUUUAAUUUAUCACUACGAAAUCUUGAGACCGGGCGUUCGACUCGCCCCCGGGAGAUUUUUUCCUCGAGCAA", "nonsense suppression": "≤ 0.026"}
{"Biosequence": "CUCUCGGUAGCCAAGUUGGUUUAAGGCGCAAGAUUUUAAUUUAUCACUACGAAAUCUUUAGAUCGGGCGUUCGACUCGCCCCCGGGAGAUUUUUUCCUCGAGCAA", "nonsense suppression": "≤ 0.026"}

In plain terms, `CUCUCGGUAGCCGAGUUGGUUUAAGGCGCAAGACUUUAAUUUAUCACUACGAAAUCUUGAGAUCGGGCGUUCGACUCGCCCCCCGGAGAUUUUUUCCUCGAGCAA` has a documented nonsense suppression of ≤ 0.026
